Reported GI50 values for the following molecules.
target: Ba/F3 EGFR-Del19/C797S (Homo sapiens, UniProt P00533, C797S, cells depend on it, form not given); assay: Ba/F3 viability assay (CellTiter-Glo), DC; assay type: cell-based; conditions: anti-proliferation, read-out: BaF3 DC IC50
Sequence (P00533 with tags, fused parts or gaps DEL746-750/C797S, form open): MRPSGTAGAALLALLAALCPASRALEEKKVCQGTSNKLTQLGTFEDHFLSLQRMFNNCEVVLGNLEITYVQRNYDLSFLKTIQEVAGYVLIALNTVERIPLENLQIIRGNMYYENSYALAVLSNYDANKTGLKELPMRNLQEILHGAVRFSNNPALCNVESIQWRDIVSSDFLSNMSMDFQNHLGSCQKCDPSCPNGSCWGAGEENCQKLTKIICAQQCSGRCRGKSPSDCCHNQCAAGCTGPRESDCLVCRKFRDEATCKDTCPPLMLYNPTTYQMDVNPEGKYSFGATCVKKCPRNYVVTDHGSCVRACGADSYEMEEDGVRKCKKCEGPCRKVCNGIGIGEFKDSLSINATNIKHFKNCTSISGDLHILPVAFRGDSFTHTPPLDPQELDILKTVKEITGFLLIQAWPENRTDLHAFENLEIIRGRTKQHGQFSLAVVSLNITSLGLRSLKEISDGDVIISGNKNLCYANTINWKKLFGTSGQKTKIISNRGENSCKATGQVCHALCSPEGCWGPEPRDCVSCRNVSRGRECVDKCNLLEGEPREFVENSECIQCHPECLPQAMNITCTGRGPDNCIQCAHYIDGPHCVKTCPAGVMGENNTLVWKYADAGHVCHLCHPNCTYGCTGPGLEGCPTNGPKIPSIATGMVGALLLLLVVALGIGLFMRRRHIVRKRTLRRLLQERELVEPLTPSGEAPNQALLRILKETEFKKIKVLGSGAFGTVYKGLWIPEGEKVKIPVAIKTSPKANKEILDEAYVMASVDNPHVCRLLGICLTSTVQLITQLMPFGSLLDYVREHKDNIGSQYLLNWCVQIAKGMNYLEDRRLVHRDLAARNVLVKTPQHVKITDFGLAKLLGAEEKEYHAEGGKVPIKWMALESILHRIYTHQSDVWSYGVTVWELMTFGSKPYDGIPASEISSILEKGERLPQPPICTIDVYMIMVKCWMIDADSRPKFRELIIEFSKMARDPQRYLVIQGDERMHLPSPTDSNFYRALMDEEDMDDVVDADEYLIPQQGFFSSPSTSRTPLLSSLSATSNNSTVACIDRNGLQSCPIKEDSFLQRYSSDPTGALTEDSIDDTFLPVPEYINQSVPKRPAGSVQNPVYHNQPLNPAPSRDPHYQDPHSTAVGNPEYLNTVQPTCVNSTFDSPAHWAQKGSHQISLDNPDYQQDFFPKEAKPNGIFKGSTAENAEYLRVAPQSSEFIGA
valueKind: GI50

{"columns": ["molecule", "valueKind", "assayValue"],
 "data": [
  ["C[C@H]1CCOc2c(cnn2C)-c2nccc(n2)Nc2cc3c(cn2)c(-c2cccc(CN(C)C)c2)nn31", "GI50", "< 0.01 µM"],
  ["CN(C)CC1CCN(c2nn3c4cc(ncc24)Nc2ccnc(n2)-c2cnn(C)c2OCCC3)C1 (stereo not drawn)", "GI50", "0.1 to 1 µM"],
  ["C[C@H]1CCOc2c(cnn2C)-c2nccc(n2)Nc2cc3c(cn2)c(-c2ccc(F)c(OCCN4CCOCC4)c2)nn31", "GI50", "0.01 to 0.1 µM"],
  ["C[C@H]1CCOc2c(cnn2C)-c2nccc(n2)Nc2cc3c(cn2)c(-c2ccc(F)c(OCCN(C)C)c2)nn31", "GI50", "< 0.01 µM"],
  ["C[C@H]1CCOc2c(cnn2C)-c2nccc(n2)Nc2cc3c(cn2)c(N2CC[C@@H](CN(C)CCF)C2)nn31", "GI50", "< 0.01 µM"],
  ["C[C@H]1CCOc2c(cnn2C)-c2nccc(n2)Nc2cc3c(cn2)c(-c2ccc(CN4CCN(CCCF)CC4)n2C)nn31", "GI50", "< 0.01 µM"]
]}
